# TEST TARGET: A156T mutant of the HCV NS3/4A 1b protease enzyme (Hepatitis C virus genotype 1b, UniProt P26663, A1182T)
# Construct: 10× stocks of NS3/4A protease enzyme from Bioenza (Mountain View, Calif.); purchased Bioenza (Mountain View, Calif.)
# ASSAY REMARKS: HCV Protease FRET Assay (IC50_APP), A156T mutant
# Format: biochemical
# TEST SETTINGS: apparent IC50, A156T mutant; read-out: IC50_APP, HCV A156T
Below, each of the compounds is paired with its reported IC50 value.

For orientation, consider the following solved cases.
[ask] // query IC50 value for entry C=CC(=O)N[C@H](Cc1ccccc1)C(=O)N1C[C@H](Oc2nccc3cc(OC)ccc23)C[C@H]1C(=O)N[C@]1(C(=O)NS(=O)(=O)C2CC2)C[C@H]1C=C [Compound I-106]
[reply] < 10 nM

[ask] Same lookup for C=C[C@@H]1C[C@]1(NC(=O)[C@@H]1CC(Oc2cc(-c3ccccc3)nc3cc(OC)ccc23)CN1C(=O)OC(C)(C)C)C(=O)NS(=O)(=O)C1CC1 (some centres unmarked) [Compound I-62] , please.
[reply] 100 to 1000 nM

[ask] And C=CC(=O)N(C)C[C@H](NC(=O)c1cnccn1)C(=O)N1C[C@H](Oc2cc(-c3ccccc3)nc3cc(OC)ccc23)C[C@H]1C(=O)N[C@]1(C(=O)NS(=O)(=O)C2CC2)C[C@H]1C=C [Compound I-58] ?
[reply] 1000 to 10000 nM

More entries:
[ask] Which IC50 is listed for C=CC(=O)N[C@H](C)C(=O)N1C[C@H](Oc2cc(-c3ccccc3)nc3cc(OC)ccc23)C[C@H]1C(=O)N[C@]1(C(=O)NS(=O)(=O)c2ccccc2)C[C@H]1C=C [Compound I-46] ?
[reply] 10 to 100 nM

[ask] Queued: C#CCOC(=O)N[C@@H](CN(C)C(=O)CCCl)C(=O)N1C[C@H](Oc2cc(-c3ccccc3)nc3cc(OC)ccc23)C[C@H]1C(=O)N[C@]1(C(=O)NS(=O)(=O)C2CC2)C[C@H]1C=C [Compound I-71]
[reply] 100 to 1000 nM
